target: TcrNT2 (Trypanosoma cruzi, UniProt Q4DHG0); test: Transport of [^3H]-thymidine by TcrNT2 expressed in L. mexicana Cas9^ΔNT1 (Km, inhibition); type: cell-based; settings: TcrNT2 in L. mexicana Cas9^ΔNT1, […] [^3H]-thymidine; IC50 converted to Ki (Cheng-Prusoff); read-out: Ki on the transport of [^3H]-thymidine by TcrNT2
Sequence (Q4DHG0 entry or part of it): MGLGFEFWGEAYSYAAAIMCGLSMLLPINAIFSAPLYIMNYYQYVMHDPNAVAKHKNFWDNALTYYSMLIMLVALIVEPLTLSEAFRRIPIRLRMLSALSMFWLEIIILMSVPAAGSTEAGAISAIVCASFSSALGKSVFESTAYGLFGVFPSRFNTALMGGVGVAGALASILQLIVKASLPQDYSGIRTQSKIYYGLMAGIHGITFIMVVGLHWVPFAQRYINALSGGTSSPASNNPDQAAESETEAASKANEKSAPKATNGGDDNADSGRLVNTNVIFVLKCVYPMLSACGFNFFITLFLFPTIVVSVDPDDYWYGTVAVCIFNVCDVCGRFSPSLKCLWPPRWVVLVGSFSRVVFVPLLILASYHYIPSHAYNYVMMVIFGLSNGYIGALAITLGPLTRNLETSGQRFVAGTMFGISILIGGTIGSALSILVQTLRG
Each record here notes measured Ki.

{"LINE_NOTATION": "O=c1[nH]c(=O)n([C@H]2C[C@H](O)[C@@H](CO)O2)cc1I", "ASSAYED_SYSTEM": "TcrNT2 (Trypanosoma cruzi, UniProt Q4DHG0)", "Ki (µM)": 0.19}
{"LINE_NOTATION": "O=c1[nH]c(=O)n([C@@H]2O[C@H](CO)[C@@H](O)[C@H]2O)cc1Br", "ASSAYED_SYSTEM": "TcrNT2 (Trypanosoma cruzi, UniProt Q4DHG0)", "Ki (µM)": 30.1}

----------
target: TcrNT2 (Trypanosoma cruzi, UniProt Q4DHG0); experiment: Transport of [^3H]-thymidine by TcrNT2 expressed in L. mexicana Cas9^ΔNT1 (Km, inhibition); type: cell-based; settings: change in ΔG° relative to thymidine
// reported δ(ΔG°) with respect to ΔG° of thymidine for each item listed
METRIC: δ(ΔG°) with respect to ΔG° of thymidine (kcal/mol)

{"LINE_NOTATION": "O=c1ccn([C@H]2C[C@H](O)[C@@H](CO)O2)c(=O)[nH]1", "NUMERIC_READOUT": -0.954}
{"LINE_NOTATION": "O=c1ccn([C@@H]2O[C@H](CO)[C@@H](O)[C@H]2O)c(=O)[nH]1", "NUMERIC_READOUT": -3.85}
{"LINE_NOTATION": "Nc1ncnc2c1ccn2[C@@H]1O[C@H](CO)[C@@H](O)[C@H]1O", "NUMERIC_READOUT": -4.78}
{"LINE_NOTATION": "O=c1[nH]c(=O)n([C@H]2C[C@H](O)[C@@H](CO)O2)cc1F", "NUMERIC_READOUT": -1.03}
{"LINE_NOTATION": "O=c1[nH]c(=O)n([C@@H]2O[C@H](CO)[C@@H](O)[C@H]2O)cc1Br", "NUMERIC_READOUT": -2.82}
{"LINE_NOTATION": "Cc1cn([C@@H]2O[C@H](CO)[C@@H](O)[C@H]2O)c(=O)[nH]c1=O", "NUMERIC_READOUT": -2.77}
{"LINE_NOTATION": "Cc1cn([C@H]2CC[C@@H](CO)O2)c(=O)[nH]c1=O", "NUMERIC_READOUT": -4.21}
{"LINE_NOTATION": "Cc1cn([C@H]2C[C@H](O)[C@@H](C)O2)c(=O)[nH]c1=O", "NUMERIC_READOUT": -1.26}

----------
tested on: L. mexicana Cas9 promastigotes; assay: Alamar blue drug sensitivity assay, L. mexicana Cas9 promastigotes; type: cell-based, Leishmania mexicana; conditions: Leishmania mexicana, 120 h, 72 h + 48 h resazurin, at least 3 independent determinations, read-out: EC50 (µM) AVG ± SEM, Cas9
METRIC: log10 of EC50 (log10 of the value in µM)

{"LINE_NOTATION": "Nc1ncnc2c1c(F)cn2[C@@H]1O[C@H](CO)C[C@H]1O", "log10 of EC50": 0.50}
{"LINE_NOTATION": "Nc1ncnc2c1c(Br)nn2[C@@H]1O[C@H](CO)[C@@H](O)[C@H]1O", "log10 of EC50": 0.58}
{"LINE_NOTATION": "Nc1ncnc2c1c(Br)cn2[C@@H]1O[C@H](CO)[C@@H](O)[C@H]1O", "log10 of EC50": -0.80}
{"LINE_NOTATION": "Nc1ncnc2c1c(F)cn2[C@@H]1O[C@H](CO)[C@@H](F)[C@H]1O", "log10 of EC50": -0.29}
{"LINE_NOTATION": "C#Cc1cn([C@@H]2O[C@H](CO)C[C@H]2O)c2ncnc(N)c12", "log10 of EC50": 1.67}
{"LINE_NOTATION": "Nc1ncnc2c1c(Br)cn2[C@@H]1O[C@H](CO)C[C@H]1O", "log10 of EC50": 0.90}
{"LINE_NOTATION": "O=c1[nH]c(=O)n([C@H]2C[C@H](O)[C@@H](CO)O2)cc1F", "log10 of EC50": 0.34}
{"LINE_NOTATION": "Nc1ncnc2c1c(I)cn2[C@@H]1O[C@H](CO)[C@@H](O)[C@H]1O", "log10 of EC50": 0.03}
{"LINE_NOTATION": "Nc1ncnc2c1c(F)cn2[C@@H]1O[C@H](CO)[C@@H](O)[C@H]1O", "log10 of EC50": -0.66}
{"LINE_NOTATION": "C#Cc1cn([C@@H]2O[C@H](CO)[C@@H](O)[C@H]2O)c2ncnc(N)c12", "log10 of EC50": -0.92}
{"LINE_NOTATION": "Nc1ncnc2c1c(C(F)(F)F)cn2[C@@H]1O[C@H](CO)[C@@H](O)[C@H]1O", "log10 of EC50": 0.15}

Every entry's value here was drawn from paper PMC9693223.
